target: T1, human TrkA receptor on the cell surface (human, UniProt P04629 33-796); assay: flow cytometry on TF-1 cells, 4 µg/ml
T1 construct: whole, on cells; PC12-hTrkA: high density; also called hTrkA; huTrkA
T1 sequence (P04629 33-796): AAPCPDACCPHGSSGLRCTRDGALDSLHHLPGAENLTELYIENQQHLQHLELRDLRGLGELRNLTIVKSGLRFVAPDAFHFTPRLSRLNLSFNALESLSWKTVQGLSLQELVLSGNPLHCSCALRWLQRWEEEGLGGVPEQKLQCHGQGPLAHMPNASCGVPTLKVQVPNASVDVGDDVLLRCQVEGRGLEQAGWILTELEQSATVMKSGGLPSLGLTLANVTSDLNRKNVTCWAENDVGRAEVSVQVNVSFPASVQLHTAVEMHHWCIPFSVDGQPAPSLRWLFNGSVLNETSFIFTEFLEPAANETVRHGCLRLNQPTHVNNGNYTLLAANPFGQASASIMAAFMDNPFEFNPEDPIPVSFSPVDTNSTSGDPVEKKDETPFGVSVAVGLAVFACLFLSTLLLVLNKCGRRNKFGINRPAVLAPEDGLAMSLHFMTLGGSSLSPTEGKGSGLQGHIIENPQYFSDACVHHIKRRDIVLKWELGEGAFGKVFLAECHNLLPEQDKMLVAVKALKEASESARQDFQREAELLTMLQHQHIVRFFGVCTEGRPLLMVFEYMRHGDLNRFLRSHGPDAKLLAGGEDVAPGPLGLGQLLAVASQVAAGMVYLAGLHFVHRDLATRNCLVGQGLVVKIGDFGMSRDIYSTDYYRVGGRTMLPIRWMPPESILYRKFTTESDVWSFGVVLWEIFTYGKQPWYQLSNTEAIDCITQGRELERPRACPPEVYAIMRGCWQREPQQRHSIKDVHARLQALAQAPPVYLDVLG
measurement-kind: Fold Increase (fold)
Number in fold, nothing else.

### Prompt Given BXhVH5VL3 (antibody, human IgG1, V domains shown, Human IgG1 constant regions (IgG1 expression vectors); also called hVH5/hVL3) VH: EVKLLESGGGLVQPGGSLRLSCAASGFTFSTYTMSWVRQTPGKRLEWVAYISKGGGSTYYPDTVKGRFTISRDNSKNTLYLQMNSLRAEDTAVYYCARGAMYGNDFFYPMDYWGQGTTVTVSS VL: QIVLTQSPATLSLSPGERATLSCSASSSVSYMHWYQQKPGQSPRLLIYTTSNLASGIPSRFSGSGSGTFYTLTISSLEPEDFAVYYCHQWSSYPWTFGGGTKLEIK , state its recorded Fold Increase.
### Response 3.9

### Prompt Also BXhVH1VL7 (antibody, human IgG1, V domains shown, Human IgG1 constant regions (IgG1 expression vectors); COS-7 supernatant; also called hVH1/hVL7) VH: EVKLLESGGGLVQPGGSLRLSCAASGFTFSTYTMSWVRQTPGKGLEWVAYISKGGGSTYYPDTVKGRFTISRDNSKNTLYLQMNSLRAEDTAVYYCAKGAMYGNDFFYPMDYWGQGTTVTVSS VL: QIVLTQSPATLSLSPGERATLSCSASSSVSYMHWYQQKPGQSPRLLIYTTSNLASGIPSRFSGSGSGTFYTLTISSLEPEDAADYYCHQWSSYPWTFGGGTKLEIK ?
### Response 1.5

### Prompt Now give it for BXhVH3VL8 (antibody, human IgG1, V domains shown, Human IgG1 constant regions (IgG1 expression vectors); COS-7 supernatant; also called hVH3/hVL8) VH: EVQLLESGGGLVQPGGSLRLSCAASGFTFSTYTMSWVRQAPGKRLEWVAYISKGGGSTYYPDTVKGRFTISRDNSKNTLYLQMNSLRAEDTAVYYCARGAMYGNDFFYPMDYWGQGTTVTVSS VL: QIVLTQSPATLSLSPGEEATLSCSASSSVSYMHWYQQKSGTSPRLLIYTTSNLASGIPSRFSGSGSGTFYTLTISSLEPEDAADYYCHQWSSYPWTFGGGTKLEIK too.
### Response 1.9
